Recorded values, source PubChem BioAssay (NCI).

- Tested on: MDA-MB-435
- Method description: NCI tumour cell line growth inhibition, 48 h
Field: TGI. Provide a value for each of the compounds that follow.

Some solved entries appear below for comparison.
O=c1oc2ccccc2c(O)c1C(c1cccc(C(c2c(O)c3ccccc3oc2=O)c2c(O)c3ccccc3oc2=O)c1)c1c(O)c2ccccc2oc1=O	> 100 µM
CC1(C)OC[C@H](COCOP2(=O)Oc3ccc4ccccc4c3-c3c(ccc4ccccc34)O2)O1	26.5 µM
O=C1c2ccn(CCCNC(CO)(CO)CO)c2C(=O)c2c1c(O)c1ccccc1c2O	> 65.4 µM
COc1cc2c3c(n(CCN4CCOCC4)c(=O)c2cc1OC)-c1ccccc1C3=O	> 100 µM
CC(C)(C)C(=O)c1c(C(F)(F)F)n([O-])c2cc(Cl)c(Cl)cc2[n+]1=O	1.01 µM
C[C@@H](CS[As](C)C)C(=O)N1CCC[C@H]1C(=O)O	0.468 µM
O=C(Sc1n[nH]c(=O)[nH]c1=O)c1cccc2nc3ccccc3nc12	29 µM
CC(Cc1ccccc1)N(C)Cc1nc(C2CCC([N+](=O)[O-])O2)no1 (stereo not drawn)	20.4 µM
CCOC(=O)[C@@H]1ON2O[C@@H](OC3CCCCC3c3ccccc3)C[C@H]3OC(=O)[C@@H]1C32 (stereo partly drawn)	> 100 µM
O=C(O/N=c1/ccc(=O)/c(=N\OC(=O)c2ccccc2)c1=O)c1ccccc1	> 100 µM

Below is a list of compounds. For each, state its recorded TGI.
1. C1=Nc2ccc(cc2)-c2ccc(cc2)N=Cc2ccc(cc2)OCc2cccc(n2)COc2ccc1cc2
2. CC(C)(C)[Si](C)(C)OCCc1ccccc1C1CC2(S(=O)(=O)c3ccccc3)ON1CC2S(=O)(=O)c1ccccc1 (stereo not drawn)
3. C=CCC(N[C@H](CO)c1ccccc1)c1ccccn1 (stereo partly drawn)

Reply |
1: > 100 µM; 2: > 100 µM; 3: > 100 µM

Below is a list of compounds. For each, state its recorded TGI.
1. CCn1cc(C(=O)N/N=C/c2cccs2)c(=O)c2cc(F)c(N3CCNC(C)C3)c(F)c21 (stereo not drawn)
2. Cc1nc2c(O)c3c(c(O)c2nc1C)C1C=CC3CC1
3. O=C(NCCCl)Nc1ccccc1
4. CO[C@@H]1C[C@H]2[C@@H]3CC[C@H]([C@H](C)COC(C)=O)[C@@]3(C)CC[C@@H]2[C@@]2(C)CC[C@H]3C[C@]312
5. CCOC(=O)N/N=C(\CC)NO
6. CC(=O)OC1CC(OC2C(O)CC(OC3C(O)CC(OC4CCC5(C)C(CCC6C5CCC5(C)C(C7=CC(=O)OC7)CCC65O)C4)OC3C)OC2C)OC(C)C1OC1OC(CO)C(O)C(O)C1O (stereo not drawn)
7. CC1(C)N=C(c2ccccc2)SC12S[C@@H]1CCCC[C@H]1S2
8. COc1c(-c2ccc3c(c2)OCO3)oc2cc(O)cc(O)c2c1=O

Reply |
1. 3.24 µM
2. 6.2 µM
3. > 100 µM
4. > 100 µM
5. > 100 µM
6. 0.172 µM
7. > 100 µM
8. > 100 µM

Below is a list of compounds. For each, state its recorded TGI.
1. CNC(=O)CCCNC(=O)CCCCC(=O)N(C)C
2. C=C1C2CC3CCC2C(OC(=O)c2ccccc2C(=O)O)C13 (stereo not drawn)
3. Clc1cc(OCc2nn3c(Cc4ccccc4)nnc3s2)c(Cl)cc1OCc1nn2c(Cc3ccccc3)nnc2s1

Reply |
1. > 100 µM
2. > 100 µM
3. > 100 µM
